- measuredTarget: BTK enzyme (recombinant full-length BTK, hBTK) (Homo sapiens (Human), UniProt Q06187)
- Sequence (Q06187 whole entry): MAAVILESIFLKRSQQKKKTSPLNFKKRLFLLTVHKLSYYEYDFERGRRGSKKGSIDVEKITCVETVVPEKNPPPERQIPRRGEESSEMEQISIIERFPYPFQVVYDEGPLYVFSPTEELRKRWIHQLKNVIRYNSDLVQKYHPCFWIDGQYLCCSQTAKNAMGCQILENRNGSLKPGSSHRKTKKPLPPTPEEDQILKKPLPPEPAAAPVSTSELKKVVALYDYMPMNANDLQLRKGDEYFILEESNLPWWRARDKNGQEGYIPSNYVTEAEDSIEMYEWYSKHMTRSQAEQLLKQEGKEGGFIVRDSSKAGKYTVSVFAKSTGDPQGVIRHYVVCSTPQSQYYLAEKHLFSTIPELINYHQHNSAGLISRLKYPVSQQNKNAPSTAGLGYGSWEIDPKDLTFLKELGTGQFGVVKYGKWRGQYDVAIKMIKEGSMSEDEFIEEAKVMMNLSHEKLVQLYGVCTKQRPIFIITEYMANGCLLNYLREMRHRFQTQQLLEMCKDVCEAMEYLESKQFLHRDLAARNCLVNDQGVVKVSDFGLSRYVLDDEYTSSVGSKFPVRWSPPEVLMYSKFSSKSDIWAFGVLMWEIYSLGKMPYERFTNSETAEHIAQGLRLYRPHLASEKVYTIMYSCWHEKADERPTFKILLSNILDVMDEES
- measurementNotes: Btk enzyme activity assay, LANCE TR-FRET
- measurementParameters: 50 pM hBTK, 2 μM biotin-A5-peptide, 25 μM ATP; 60 minute compound & enzyme incubation; read-out: BTK binding IC50
pIC50: −log10 of the molar value.
measuredAttribute: pIC50

[a] C[C@@]1(C(=O)O)CC[C@@](C)(c2nc(-c3ccc(C(=O)Nc4cc(C(F)(F)F)ccn4)cc3Cl)c3c(N)nccn23)C1
[b] CCOc1cc(C(=O)Nc2cc(C(F)(F)F)ccn2)ccc1-c1nc([C@H]2C[C@H]3CC[C@@H](C2)[C@H]3C(=O)O)n2ccnc(N)c12
Data request: Identify the entry with the smaller pIC50: a or b . When you have decided, please share the label of that item.
Data returned: b
(b: 8.28, a: 9.60)

----------
- measuredTarget: BTK enzyme (recombinant full-length BTK, hBTK) (Homo sapiens (Human), UniProt Q06187)
- measurementNotes: Btk enzyme activity assay, LANCE TR-FRET
- measurementParameters: 50 pM hBTK, 2 μM biotin-A5-peptide, 25 μM ATP; 60 minute compound & enzyme incubation; read-out: BTK binding IC50
- Protocol: Btk Enzyme Activity Assay Methods BTK enzymatic activity was determined with the LANCE (Lanthanide Chelate Excite) TR-FRET (Time-resolved fluorescence resonance energy transfer) assay. […] After 60 minutes incubation with detection reagents, reaction plates were read on a PerkinElmer EnVision plate reader using standard TR-FRET protocol.
measuredAttribute: IC50 (nM)

1) CC(C)[C@@]1(C(=O)O)CC[C@H](N2C[C@H](c3nc(-c4ccc(C(=O)Nc5cc(C(F)(F)F)ccn5)cc4F)c4c(N)ncc(Cl)n34)OC[C@@H]2C)C1 :: 1.9

[I] Nc1nccn2c(C34CCC(C(=O)O)(CC3)CC4)nc(-c3ccc(C(=O)Nc4cc(C(F)(F)F)ccn4)cc3O)c12
[II] CCOc1cc(C(=O)Nc2cc(C(F)(F)F)ccn2)ccc1-c1nc([C@H]2CN(C3CCC(C)(C(=O)O)CC3)[C@@H](C)CO2)n2c(Cl)cnc(N)c12 (stereo partly drawn)
Data request: Identify the entry with the smaller IC50: I or II . When you have decided, please share the label of that item.
Data returned: I
(I: 0.41 nM, II: 1.9 nM)

----------
- Test system: HeLa cells
- measurementNotes: [3H] Adenosine uptake assay
- Assay type: cell-based
- measurementParameters: Homo sapiens, HeLa, accumulation of tritiated adenosine into HeLa cells; compound concentration range 10 μM to 0.032 nM; read-out: ADU inhibition IC50 (adenosine uptake inhibition potency)
pIC50: −log10 of the molar value.
measuredAttribute: pIC50

Examples from the recorded data:
1) CC(C)[C@@]1(C(=O)O)CC[C@H](N2C[C@H](c3nc(-c4ccc(C(=O)Nc5cc(C(F)(F)F)ccn5)cc4F)c4c(N)ncc(Cl)n34)OC[C@@H]2C)C1 [Example 203] :: 6.05
2) CCOc1cc(C(=O)Nc2cc(C(F)(F)F)ccn2)ccc1-c1nc([C@@H]2CC[C@](C(=O)O)(C(C)C)C2)n2ccnc(N)c12 [Example 61] :: 5.00
3) Nc1nccn2c([C@H]3CN(C4CC(C(=O)O)C4)CCO3)nc(-c3ccc(C(=O)Nc4cc(C(F)(F)F)ccn4)cc3)c12 (stereo partly drawn) [Example 179] :: 5.32

[1] Nc1nccn2c(C34CCC(C(=O)O)(CC3)CC4)nc(-c3ccc(C(=O)Nc4cc(C(F)(F)F)ccn4)cc3F)c12 [Example 170]
[2] Nc1nccn2c(C34C5C6C3C3C4C5C63C(=O)O)nc(-c3ccc(C(=O)Nc4cc(C5CC5)ccn4)cc3F)c12 (stereo not drawn) [Example 74]
Data request: Select one: 1 or 2 . Criterion: greater recorded pIC50. When you have decided, please share the label of that item.
Data returned: 2

Numbers sourced from patent US10087188B2.
